# Tested on: 186277-243-T-J2-PDC complex spheroid viability
# experimental.details: Anticancer human tumor 186277-243-T-J2-PDC patient-derived colon adenocarcinoma cell line growth inhibition [POLQ]
# run.parameters: second compound 0.316 µM; first compound 0.0316 µM; hits give low values
endpoint.name: viability, T/C (%)
Provide only the numeric value, understood in %.

Consider the worked cases shown below.
[
  {
    "compound": "CCCS(=O)(=O)Nc1ccc(F)c(C(=O)c2c[nH]c3ncc(-c4ccc(Cl)cc4)cc23)c1F + Cc1cccc(N(C)C(=O)C2C(O)CCN2c2nc(C)cc(C(F)(F)F)c2C#N)c1",
    "assay.target": "186277-243-T-J2-PDC complex spheroid viability",
    "observed": 85.9
  },
  {
    "compound": "COc1cc2cc(C(=O)CCC(=O)O)sc2cc1OC + Nc1ccc(C#CCN(C(=O)Cc2ncc(C(F)(F)F)cc2C(F)(F)F)c2ccc(F)cc2)nn1",
    "assay.target": "186277-243-T-J2-PDC complex spheroid viability",
    "observed": 97.5
  },
  {
    "compound": "C=CC(=O)N1CCN(c2nc(=O)n(-c3c(C)ccnc3C(C)C)c3nc(-c4c(O)cccc4F)c(F)cc23)C(C)C1 (stereo not given) + Nc1ccc(C#CCN(C(=O)Cc2ncc(C(F)(F)F)cc2C(F)(F)F)c2ccc(F)cc2)nn1",
    "assay.target": "186277-243-T-J2-PDC complex spheroid viability",
    "observed": 91
  }
]

-- ask Reported viability, T/C, compound COc1cc2cc(C(=O)CCC(=O)O)sc2cc1OC + COC1C(OC(N)=O)C(O)C(Oc2ccc3c(O)c(NC(=O)c4ccc(O)c(CC=C(C)C)c4)c(=O)oc3c2C)OC1(C)C : ____
-- reply 102

-- ask Reported viability, T/C, compound CNCc1ccc(-c2[nH]c3cc(F)cc4c3c2CCNC4=O)cc1 + COC1C(OC(N)=O)C(O)C(Oc2ccc3c(O)c(NC(=O)c4ccc(O)c(CC=C(C)C)c4)c(=O)oc3c2C)OC1(C)C : ____
-- reply 110

###

# System: 186277-243-T-J2-PDC complex spheroid viability
# experimental.details: Anticancer human tumor 186277-243-T-J2-PDC cell line growth inhibition [POLQ];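 further: spheroids exposed to compounds for seven days; 100% = DMSO vehicle control viability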
# run.parameters: second compound 0.1 µM; first compound 0.01 µM; hits give low values
endpoint.name: viability, T/C

Consider the worked cases shown below.
[
  {
    "compound": "COc1cccc(OCCCN)c1-c1cc(Nc2cnc(C#N)cn2)n[nH]1 + COC1C(OC(N)=O)C(O)C(Oc2ccc3c(O)c(NC(=O)c4ccc(O)c(CC=C(C)C)c4)c(=O)oc3c2C)OC1(C)C",
    "assay.target": "186277-243-T-J2-PDC complex spheroid viability",
    "endpoint.name": "viability, T/C",
    "observed": "5.58%"
  },
  {
    "compound": "C=CCn1c(=O)c2cnc(Nc3ccc(N4CCN(C)CC4)cc3)nc2n1-c1cccc(C(C)(C)O)n1 + Nc1ccc(C#CCN(C(=O)Cc2ncc(C(F)(F)F)cc2C(F)(F)F)c2ccc(F)cc2)nn1",
    "assay.target": "186277-243-T-J2-PDC complex spheroid viability",
    "endpoint.name": "viability, T/C",
    "observed": "107%"
  },
  {
    "compound": "CC[C@@]1(O)C(=O)OCc2c1cc1n(c2=O)Cc2cc3c(CN(C)C)c(O)ccc3nc2-1 + Nc1ccc(C#CCN(C(=O)Cc2ncc(C(F)(F)F)cc2C(F)(F)F)c2ccc(F)cc2)nn1",
    "assay.target": "186277-243-T-J2-PDC complex spheroid viability",
    "endpoint.name": "viability, T/C",
    "observed": "129%"
  }
]

-- ask Checklist item: viability, T/C tested on 186277-243-T-J2-PDC complex spheroid viability, entry CC[C@@]1(O)C(=O)OCc2c1cc1n(c2=O)Cc2cc3c(CN(C)C)c(O)ccc3nc2-1 + COC1C(OC(N)=O)C(O)C(Oc2ccc3c(O)c(NC(=O)c4ccc(O)c(CC=C(C)C)c4)c(=O)oc3c2C)OC1(C)C , value?
-- reply 115%

-- ask Checklist item: viability, T/C tested on 186277-243-T-J2-PDC complex spheroid viability, entry Cn1ncnc1[C@H]1c2n[nH]c(=O)c3cc(F)cc(c23)N[C@@H]1c1ccc(F)cc1 + Nc1ccc(C#CCN(C(=O)Cc2ncc(C(F)(F)F)cc2C(F)(F)F)c2ccc(F)cc2)nn1 , value?
-- reply 105%

###

# System: 186277-243-T-J2-PDC complex spheroid viability
# experimental.details: Anticancer human tumor 186277-243-T-J2-PDC cell line growth inhibition [POLQ];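 further: spheroids exposed to compounds for seven days; 100% = DMSO vehicle control viability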
# run.parameters: second compound 0.0316 µM; first compound 0.316 µM; hits give low values
Form field: viability, T/C (one value per entry).
Provide only the numeric value, understood in %.

[
  {
    "molecule": "CCCS(=O)(=O)Nc1ccc(F)c(C(=O)c2c[nH]c3ncc(-c4ccc(Cl)cc4)cc23)c1F + Cc1cccc(N(C)C(=O)C2C(O)CCN2c2nc(C)cc(C(F)(F)F)c2C#N)c1",
    "viability, T/C [%]": 80.6
  },
  {
    "molecule": "CCc1cc2c(N3CCc4c(cc(Cn5ccnc5)cc4-c4cn(C)nc4C(F)(F)F)C3=O)ccnc2c(OC)n1 + Cc1cccc(N(C)C(=O)C2C(O)CCN2c2nc(C)cc(C(F)(F)F)c2C#N)c1",
    "viability, T/C [%]": 96.2
  }
]

The record that follows has no viability, T/C shown yet.
-- ask Reported viability, T/C, molecule O=C(c1cc(Cc2n[nH]c(=O)c3ccccc23)ccc1F)N1CCN(C(=O)C2CC2)CC1 + COC1C(OC(N)=O)C(O)C(Oc2ccc3c(O)c(NC(=O)c4ccc(O)c(CC=C(C)C)c4)c(=O)oc3c2C)OC1(C)C : ____
-- reply 106

###

# System: 186277-243-T-J2-PDC complex spheroid viability
# experimental.details: Anticancer human tumor 186277-243-T-J2-PDC cell line growth inhibition [POLQ];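 further: spheroids exposed to compounds for seven days; 100% = DMSO vehicle control viability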
# run.parameters: second compound 3.16 µM; first compound 10 µM; hits give low values
Form field: viability, T/C (one value per entry).
Provide only the numeric value, understood in %.

[
  {
    "compound": "O=C(c1cc(Cc2n[nH]c(=O)c3ccccc23)ccc1F)N1CCN(C(=O)C2CC2)CC1 + Cc1cccc(N(C)C(=O)C2C(O)CCN2c2nc(C)cc(C(F)(F)F)c2C#N)c1",
    "viability, T/C (%)": 58.7
  },
  {
    "compound": "C#Cc1c(F)ccc2cc(O)cc(-c3ncc4c(N5CC6CCC(C5)N6)nc(OCC56CCCN5CC(F)C6)nc4c3F)c12 (stereo not given) + Cc1cccc(N(C)C(=O)C2C(O)CCN2c2nc(C)cc(C(F)(F)F)c2C#N)c1",
    "viability, T/C (%)": 5.42
  },
  {
    "compound": "O=C(c1cc(Cc2n[nH]c(=O)c3ccccc23)ccc1F)N1CCN(C(=O)C2CC2)CC1 + COC1C(OC(N)=O)C(O)C(Oc2ccc3c(O)c(NC(=O)c4ccc(O)c(CC=C(C)C)c4)c(=O)oc3c2C)OC1(C)C",
    "viability, T/C (%)": 63.9
  },
  {
    "compound": "CCCS(=O)(=O)Nc1ccc(F)c(C(=O)c2c[nH]c3ncc(-c4ccc(Cl)cc4)cc23)c1F + Nc1ccc(C#CCN(C(=O)Cc2ncc(C(F)(F)F)cc2C(F)(F)F)c2ccc(F)cc2)nn1",
    "viability, T/C (%)": 63.6
  }
]

The record that follows has no viability, T/C shown yet.
-- ask Reported viability, T/C, compound CCc1cc2c(N3CCc4c(cc(Cn5ccnc5)cc4-c4cn(C)nc4C(F)(F)F)C3=O)cc(C)nc2c(OC)n1 + Cc1cccc(N(C)C(=O)C2C(O)CCN2c2nc(C)cc(C(F)(F)F)c2C#N)c1 : ____
-- reply 92.9

###

Form field: viability, T/C (one value per entry).
# Test system: 186277-243-T-J2-PDC complex spheroid viability
# experimental.details: Anticancer human tumor 186277-243-T-J2-PDC cell line growth inhibition [POLQ];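 further: spheroids exposed to compounds for seven days; 100% = DMSO vehicle control viability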
# run.parameters: second compound 0.1 µM; first compound 1 µM; hits give low values
Provide only the numeric value, understood in %.

[
  {
    "molecule": "CNCc1ccc(-c2[nH]c3cc(F)cc4c3c2CCNC4=O)cc1 + COC1C(OC(N)=O)C(O)C(Oc2ccc3c(O)c(NC(=O)c4ccc(O)c(CC=C(C)C)c4)c(=O)oc3c2C)OC1(C)C",
    "readout.unit": "%",
    "viability, T/C": 105
  },
  {
    "molecule": "CCCS(=O)(=O)Nc1ccc(F)c(C(=O)c2c[nH]c3ncc(-c4ccc(Cl)cc4)cc23)c1F + Nc1ccc(C#CCN(C(=O)Cc2ncc(C(F)(F)F)cc2C(F)(F)F)c2ccc(F)cc2)nn1",
    "readout.unit": "%",
    "viability, T/C": 82.9
  },
  {
    "molecule": "COc1cccc(OCCCN)c1-c1cc(Nc2cnc(C#N)cn2)n[nH]1 + Nc1ccc(C#CCN(C(=O)Cc2ncc(C(F)(F)F)cc2C(F)(F)F)c2ccc(F)cc2)nn1",
    "readout.unit": "%",
    "viability, T/C": 9.39
  },
  {
    "molecule": "COc1cccc(OCCCN)c1-c1cc(Nc2cnc(C#N)cn2)n[nH]1 + COC1C(OC(N)=O)C(O)C(Oc2ccc3c(O)c(NC(=O)c4ccc(O)c(CC=C(C)C)c4)c(=O)oc3c2C)OC1(C)C",
    "readout.unit": "%",
    "viability, T/C": 5.58
  }
]

The record that follows has no viability, T/C shown yet.
-- ask Reported viability, T/C, molecule COc1cc2cc(C(=O)CCC(=O)O)sc2cc1OC + COC1C(OC(N)=O)C(O)C(Oc2ccc3c(O)c(NC(=O)c4ccc(O)c(CC=C(C)C)c4)c(=O)oc3c2C)OC1(C)C : ____
-- reply 101
